target: BRM (Homo sapiens); construct: made in house; host or cells: High Five insect cells; experiment: ATPase catalytic activity of BRM, ADP-Glo in vitro biochemical assay; conditions: ratio of BRG1 IC50 to BRM IC50
Sequence (P51531 whole entry): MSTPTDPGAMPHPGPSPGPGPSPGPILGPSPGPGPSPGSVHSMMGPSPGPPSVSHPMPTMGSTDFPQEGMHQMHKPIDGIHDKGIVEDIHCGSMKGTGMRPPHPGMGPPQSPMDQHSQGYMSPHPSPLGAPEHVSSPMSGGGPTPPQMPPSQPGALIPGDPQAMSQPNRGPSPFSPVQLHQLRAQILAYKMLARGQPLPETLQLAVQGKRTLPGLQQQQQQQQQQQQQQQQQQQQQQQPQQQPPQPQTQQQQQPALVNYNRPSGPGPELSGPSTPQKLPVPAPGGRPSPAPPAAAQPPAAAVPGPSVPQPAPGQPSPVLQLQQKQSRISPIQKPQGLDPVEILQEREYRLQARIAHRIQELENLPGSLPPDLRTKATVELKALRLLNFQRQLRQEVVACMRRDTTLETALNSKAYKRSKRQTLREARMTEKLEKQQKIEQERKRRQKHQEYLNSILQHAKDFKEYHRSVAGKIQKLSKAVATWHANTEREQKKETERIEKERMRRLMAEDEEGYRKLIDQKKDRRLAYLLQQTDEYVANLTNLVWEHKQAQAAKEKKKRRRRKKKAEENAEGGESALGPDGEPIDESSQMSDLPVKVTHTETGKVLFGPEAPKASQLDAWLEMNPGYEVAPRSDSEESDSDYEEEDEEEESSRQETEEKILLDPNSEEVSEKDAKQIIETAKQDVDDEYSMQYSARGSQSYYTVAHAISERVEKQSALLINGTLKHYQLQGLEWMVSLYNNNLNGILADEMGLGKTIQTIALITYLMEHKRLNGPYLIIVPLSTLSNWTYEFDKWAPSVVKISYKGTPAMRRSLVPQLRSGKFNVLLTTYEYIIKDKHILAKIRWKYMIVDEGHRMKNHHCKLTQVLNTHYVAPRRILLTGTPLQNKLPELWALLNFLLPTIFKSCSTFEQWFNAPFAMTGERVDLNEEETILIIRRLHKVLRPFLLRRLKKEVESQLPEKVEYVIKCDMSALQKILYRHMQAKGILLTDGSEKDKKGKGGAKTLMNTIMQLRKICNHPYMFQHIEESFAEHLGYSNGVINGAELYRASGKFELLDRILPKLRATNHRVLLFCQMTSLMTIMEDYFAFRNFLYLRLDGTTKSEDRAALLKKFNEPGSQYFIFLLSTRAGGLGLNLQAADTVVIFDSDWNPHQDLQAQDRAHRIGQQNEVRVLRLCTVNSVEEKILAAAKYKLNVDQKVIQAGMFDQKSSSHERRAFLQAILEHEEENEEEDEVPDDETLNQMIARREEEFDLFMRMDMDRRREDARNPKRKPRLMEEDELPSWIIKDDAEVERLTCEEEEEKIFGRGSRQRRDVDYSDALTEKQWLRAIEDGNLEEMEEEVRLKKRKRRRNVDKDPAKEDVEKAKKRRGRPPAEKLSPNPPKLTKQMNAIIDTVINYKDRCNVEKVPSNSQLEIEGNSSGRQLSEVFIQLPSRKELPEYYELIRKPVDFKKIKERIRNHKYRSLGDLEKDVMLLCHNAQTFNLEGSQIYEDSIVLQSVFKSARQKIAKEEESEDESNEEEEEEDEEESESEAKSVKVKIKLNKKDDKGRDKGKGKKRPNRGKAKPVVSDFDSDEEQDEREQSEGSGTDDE
Ratio* strictly under 20 means 1; at 20 or over means -1.

molecule | category
Cc1cnc2c(c1)CCN2c1ccc2cnc(CNC(=O)c3ccc4c(c3)S(=O)(=O)CCOC4)cc2n1 | 1

Input: # check: Ratio* < 20 for "COc1cccc(-c2ccc3cnc(CNC(=O)c4ccc5c(c4)S(=O)(=O)CCOC5)cc3n2)n1"
Output: 1

Input: # check: Ratio* < 20 for "O=C(NCc1cc2nc(N3CCOc4ccc(C5CC5)nc43)ccc2cn1)c1ccc2c(c1)S(=O)(=O)CCOC2"
Output: -1

Input: # check: Ratio* < 20 for "Cc1ccc2c(n1)N(c1ccc3cnc(CNC(=O)c4ccc5c(c4)S(=O)(=O)[C@@H](C)COC5)cc3c1)CCO2"
Output: -1

Input: # check: Ratio* < 20 for "C[C@@H]1CN(c2cccc(-c3ccc4cnc(CNC(=O)c5ccc6c(c5)S(=O)(=O)[C@@H](C)CN6C5CC5)cc4n3)n2)C[C@H](C)O1"
Output: 1

Input: # check: Ratio* < 20 for CN1CCC2(c3cccc(-c4ccc5cnc(CNC(=O)c6ccc7c(c6)S(=O)(=O)CCOC7)cc5n4)n3)CC2C1 (stereo not shown)
Output: 1

Input: # check: Ratio* < 20 for "Cc1cnc2c(c1)OCCN2c1ccc2cnc(CNC(=O)c3ccc4c(c3)S(=O)(=O)CCOC4)cc2n1"
Output: 1
